Assay: aqueous solubility
Assay type: physicochemical
Details: water
READOUT: solubility (µg/mL)

COMPOUND: O=P(O)(O)O[C@@H]1[C@@H](n2cc(-c3cc(F)c(F)c(F)c3)nn2)[C@@H](O)[C@@H](CO)O[C@@H]1Sc1cncc(Br)c1
solubility / µg/mL: 9800
--
COMPOUND: OC[C@H]1O[C@H](Sc2cncc(Br)c2)[C@H](O)[C@@H](n2cc(-c3cc(F)c(F)c(F)c3)nn2)[C@H]1O [Ref 1, reference compound]
solubility / µg/mL: 7

(P) OC[C@H]1O[C@H](Sc2ccc(Cl)c(Cl)c2)[C@H](O)[C@@H](n2cc(-c3cc(F)c(F)c(F)c3)nn2)[C@H]1O [Ref 2, reference compound]
(Q) O=P(O)(O)OC[C@H]1O[C@H](Sc2cncc(Br)c2)[C@H](O)[C@@H](n2cc(-c3cc(F)c(F)c(F)c3)nn2)[C@H]1O
Hey, between P and Q which has a smaller measured solubility? Answer by stating the label of the chosen item.
P
(P: 37 µg/mL, Q: 8500 µg/mL)

====

Biological target: Galectin-3 (Homo sapiens)
Sequence (P17931 whole entry): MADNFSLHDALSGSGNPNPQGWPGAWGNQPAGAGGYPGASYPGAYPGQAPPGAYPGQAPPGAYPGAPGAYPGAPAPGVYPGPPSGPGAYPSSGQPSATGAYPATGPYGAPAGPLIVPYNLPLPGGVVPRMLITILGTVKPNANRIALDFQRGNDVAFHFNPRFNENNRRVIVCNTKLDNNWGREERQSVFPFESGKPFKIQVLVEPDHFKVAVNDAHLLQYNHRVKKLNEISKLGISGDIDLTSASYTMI
Test: fluorescence anisotropy assay, inhibition of galectin / fluorescein tagged saccharide probe interaction
Settings: fluorescence anisotropy
READOUT: Kd (nM)

(a) O=P(O)(O)OC[C@H]1O[C@H](Sc2cncc(Br)c2)[C@H](O)[C@@H](n2cc(-c3cc(F)c(F)c(F)c3)nn2)[C@H]1O [Example 1]
(b) O=S(=O)(O)O[C@@H]1[C@@H](n2cc(-c3cc(F)c(F)c(F)c3)nn2)[C@@H](O)[C@@H](CO)O[C@@H]1Sc1cncc(Br)c1 [Example 5]
Hey, between a and b which has a smaller measured Kd? Answer by stating the label of the chosen item.
b

(P) O=S(=O)(O)OC1C(n2cc(-c3cc(F)c(F)c(F)c3)nn2)[C@@H](O)C(CO)O[C@@H]1Sc1ccc(Cl)c(Cl)c1 (stereo partly drawn) [Example 4]
(Q) O=P(O)(O)O[C@@H]1[C@@H](n2cc(-c3cc(F)c(F)c(F)c3)nn2)[C@@H](O)[C@@H](CO)O[C@@H]1Sc1ccc(Cl)c(Cl)c1 [Example 3]
Hey, between P and Q which has a smaller measured Kd? Answer by stating the label of the chosen item.
Q
(Q: 7 nM, P: 14 nM)

(1) O=S(=O)(O)OC[C@H]1O[C@H](Sc2cncc(Br)c2)[C@H](O)[C@@H](n2cc(-c3cc(F)c(F)c(F)c3)nn2)[C@H]1O [Example 6]
(2) O=P(O)(O)O[C@@H]1[C@@H](n2cc(-c3cc(F)c(F)c(F)c3)nn2)[C@@H](O)[C@@H](CO)O[C@@H]1Sc1cncc(Br)c1 [Example 2]
(3) O=P(O)(O)OCOC[C@H]1O[C@H](Sc2cncc(Br)c2)[C@H](O)[C@@H](n2cc(-c3cc(F)c(F)c(F)c3)nn2)[C@H]1O [Example 7]
Thanks in advance: please rank these 3 entries by Kd, highest to lowest. Give the order by naming the labels one after another as requested.
1, 3, 2

(P) O=P(O)(O)OCO[C@@H]1[C@@H](n2cc(-c3cc(F)c(F)c(F)c3)nn2)[C@@H](O)[C@@H](CO)O[C@@H]1Sc1cncc(Br)c1 [Example 8]
(Q) O=P(O)(O)OCO[C@@H]1[C@@H](n2cc(-c3cc(F)c(Cl)c(F)c3)nn2)[C@@H](O)[C@@H](CO)O[C@@H]1Sc1cncc(Br)c1 [Example 9]
# returns the entry with the larger Kd; inputs P and Q Answer by stating the label of the chosen item.
P
(P: 10 nM, Q: 7 nM)
